These measurements were taken from patent US20220363763A1.

For each of the binders below, state its kon.
Molecular target: T1, recombinant his-tag human LAG3-ECD protein (human, UniProt P18627 23-450)
T1 construct: extracellular domain; not shown: his tag
T1 sequence (looked up): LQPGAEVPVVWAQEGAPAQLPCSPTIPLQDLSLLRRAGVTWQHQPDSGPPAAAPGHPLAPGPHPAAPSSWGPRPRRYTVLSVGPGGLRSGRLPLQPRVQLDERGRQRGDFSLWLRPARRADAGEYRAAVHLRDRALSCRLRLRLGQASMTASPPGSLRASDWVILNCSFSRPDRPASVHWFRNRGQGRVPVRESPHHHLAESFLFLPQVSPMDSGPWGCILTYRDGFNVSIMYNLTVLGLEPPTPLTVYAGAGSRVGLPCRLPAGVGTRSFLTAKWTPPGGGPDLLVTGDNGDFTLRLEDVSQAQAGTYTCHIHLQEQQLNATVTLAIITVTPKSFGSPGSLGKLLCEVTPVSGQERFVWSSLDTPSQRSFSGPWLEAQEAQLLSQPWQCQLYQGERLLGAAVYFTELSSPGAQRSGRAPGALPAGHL
Assay: SPR Biacore T200, capture method as Example 2.7
For clarity, give the value followed by its unit.

Examples with their reported kon follow.
| binder | kon |
| --- | --- |
| 147H 3811 (antibody, V domains shown) VH: EVQLVQSGAEVKKPGASVKVSCKASGYLFTNYWLGWIKQAPGQGLEWIGDIYPGGDYIVYNEKFKGKATLTADTSISTAYMELSRLRSDDTAVYYCARPNLPKDHWGQGTTVTVSS VL: DIVMTQSPLSLPVTPGEPASISCRSSKSLLHSNAITYLYWYLQKPGQSPQLLIYQVSNLATGVPDRFSGSGSGTDFTLKISRVEAEDVGVYYCGQYLELPWTFGGGTKVEIK | 4.9e+06 M⁻¹ s⁻¹ |
| 147H 3549 (antibody, V domains shown) VH: EVQLVQSGAEVKKPGASVKVSCKASGYTFTNYWLGWIKQAPGQGLEWIGDIYPGGDYINYNEKFKGKATLTADTSISTAYMELSRLRSDDTAVYYCARPNLPKDHWGQGTTVTVSS VL: DIVMTQSPLSLPVTPGEPASISCRSSKSLLHSNAITYLYWYLQKPGQSPQLLIYQVSNLASGVPDRFSGSGSGTDFTLKISRVEAEDVGVYYCAQYLEEPWTFGGGTKVEIK | 7.4e+06 M⁻¹ s⁻¹ |

Can you share its kon? I mean this binder: 147H 3791 (antibody, V domains shown) VH: EVQLVQSGAEVKKPGASVKVSCKASGYTFTNYWLGWIKQAPGQGLEWIGDIYPGGDYIVYNEKFKGKATLTADTSISTAYMELSRLRSDDTAVYYCARPNLPGDYWGQGTTVTVSS VL: DIVMTQSPLSLPVTPGEPASISCRSSKSLLHSNAITYLYWYLQKPGQSPQLLIYQVSNLASGVPDRFSGSGSGTDFTLKISRVEAEDVGVYYCGQNLELPWTFGGGTKVEIK 2.1e+06 M⁻¹ s⁻¹
